Values were extracted from patent US10308689B2.

tested on: PBMC of healthy adult blood donors from Colombo, Sri Lanka; test: Ex vivo IFNγ ELISPOT, HLA-matched PBMC of Sri Lankan blood donors; format: cell-based, human; set-up: unit not given here; settings: total over responding donors; restricting HLA allele and serotype as given
READOUT LABEL: Total Response per epitope
Lab note: jot down the number only; don't add units.

CC(C)C[C@H](NC(=O)[C@@H](NC(=O)[C@H](C)NC(=O)[C@H](CCC(=O)O)NC(=O)CNC(=O)[C@H](CCC(N)=O)NC(=O)[C@@H](NC(=O)[C@@H]1CCCN1C(=O)[C@@H](N)CS)[C@@H](C)O)C(C)C)C(=O)O :: 385.0

Requested field: Total Response per epitope. Item: CC[C@H](C)[C@H](NC(=O)[C@H](CCC(N)=O)NC(=O)[C@@H](N)CCCCN)C(=O)N[C@@H](C)C(=O)N[C@@H](CC(N)=O)C(=O)N[C@@H](CCC(=O)O)C(=O)N[C@@H](CC(C)C)C(=O)N[C@@H](CC(N)=O)C(=O)N[C@@H](Cc1ccc(O)cc1)C(=O)O
26.7
